molecular target: P2Y12 receptor (Homo sapiens); assay: [33P]-2MeS-ADP binding to recombinant human P2Y12 membranes (Assay 3); parameters: expressed in transfected cells; host or cells: HEK cells; details: HEK cell membranes expressing human P2Y12, competition with 33P 2MeS-ADP
Kindly state Ki for each of the entries shown.
Answers are plain numbers, in µM.

Answered cases to consult:
[[record]]
smilescode = "CCc1cc2c(N3CCN(C(=O)c4ccc5cc[nH]c5c4)CC3)nc(SCC(=O)OC)nc2s1"
tgt = "P2Y12 receptor (Homo sapiens)"
assayvalue = 1.13

[[record]]
smilescode = "CCc1cc2c(N3CCN(C(=O)c4ccc5c(c4)OCC5)CC3)nc(SCC(=O)OC)nc2s1"
tgt = "P2Y12 receptor (Homo sapiens)"
assayvalue = 0.74

[[record]]
smilescode = "CCc1cc2c(N3CCN(C(=O)Cc4ccccc4)CC3)nc(SCCNC(C)=O)nc2s1"
tgt = "P2Y12 receptor (Homo sapiens)"
assayvalue = 0.17

[[record]]
smilescode = "CCc1cc2c(N3CCN(C(=O)CCC(=O)OC)CC3)nc(SCC(=O)OC)nc2s1"
tgt = "P2Y12 receptor (Homo sapiens)"
assayvalue = 3.83

[[record]]
smilescode = "CCc1cc2c(N3CCN(C(=O)c4ccc5[nH]ccc5c4)CC3)nc(SCC(=O)OC)nc2s1"
tgt = "P2Y12 receptor (Homo sapiens)"
assayvalue = 3.53

[[record]]
smilescode = "CCc1cc2c(N3CCN(C(=O)CC(=O)OC)CC3)nc(SCC(=O)OC)nc2s1"
tgt = "P2Y12 receptor (Homo sapiens)"
assayvalue = 2.69

[[record]]
smilescode = "CCc1cc2c(N3CCN(C(=O)/C=C/c4ccccc4)CC3)nc(SCC(=O)OC)nc2s1"
tgt = "P2Y12 receptor (Homo sapiens)"
assayvalue = 3.63

[[record]]
smilescode = "CCOc1ccc(C(=O)N2CCN(c3nc(SCC(=O)OC)nc4sc(CC)cc34)CC2)cc1"
tgt = "P2Y12 receptor (Homo sapiens)"
assayvalue = 0.524


Provide Ki values for the following items, in order.
1. CCc1cc2c(N3CCN(C(=O)c4c(-c5ccc(OC)cc5)noc4C)CC3)nc(SCC(=O)OC)nc2s1
2. CCc1cc2c(N3CCN(C(=O)c4ccc5ccccc5c4)CC3)nc(SCC(=O)OC)nc2s1

1: 3.88; 2: 0.98

----------
target: P2Y12 receptor (Homo sapiens, UniProt Q9H244); assay: [33P]-2MeS-ADP binding to recombinant human P2Y12 membranes (Assay 3); parameters: expressed in transfected cells; host or cells: HEK cells; conditions: HEK cell membranes expressing human P2Y12, competition with 33P 2MeS-ADP
Sequence (Q9H244 whole entry): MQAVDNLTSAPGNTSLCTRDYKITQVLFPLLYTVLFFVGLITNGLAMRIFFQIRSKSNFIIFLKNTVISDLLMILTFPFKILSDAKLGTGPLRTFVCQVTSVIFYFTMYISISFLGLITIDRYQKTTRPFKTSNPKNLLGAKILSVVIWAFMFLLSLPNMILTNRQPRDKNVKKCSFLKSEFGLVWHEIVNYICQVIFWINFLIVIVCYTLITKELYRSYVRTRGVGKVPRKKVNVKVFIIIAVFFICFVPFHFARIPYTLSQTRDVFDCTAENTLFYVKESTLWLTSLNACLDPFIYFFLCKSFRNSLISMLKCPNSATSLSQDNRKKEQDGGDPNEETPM
pKi: −log10 of the molar value.
Binary call on pKi: true (1) from 6 upward, false (0) beneath that.

[[record]]
molecule = "CCc1cc2c(N3CCN(C(=O)c4ccc5nccnc5c4)CC3)nc(SCC(=O)OC)nc2s1"
categorylabel = "false (0)"

[[record]]
molecule = "CCc1cc2c(N3CCN(C(=O)c4nnc(-c5ccccc5)o4)CC3)nc(SCC(=O)OC)nc2s1"
categorylabel = "true (1)"

[[record]]
molecule = "CCc1cc2c(N3CCN(C(=O)c4ccc(-c5ccccc5)cc4)CC3)nc(SCC(N)=O)nc2s1"
categorylabel = "true (1)"


State whether the measured pKi reaches 6, counting equality as reaching it, for `CCc1cc2c(N3CCN(C(=O)c4ccc(C#N)cc4)CC3)nc(SCC(=O)OC)nc2s1`
false (0)

State whether the measured pKi reaches 6, counting equality as reaching it, for CCc1cc2c(N3CCN(C(=O)c4ccc(-c5ccccc5)cc4)CC3)nc(SC(C)C(C)=O)nc2s1 (centres unmarked)
true (1)
